Assay read-out pIC50 on Epidermal growth factor receptor (Homo sapiens); records merged from the literature.
Give only the number. pIC50 is defined as minus log10 of concentration in molar units.

Example results:
In [3]: df
Out[3]:
                      smiles_representation  obs_value
0  CCN1CCN(C(=O)/C(F)=C/c2c(C)ncnc2Nc2ccc(OCc3cccc(F)c3)c(Cl)c2)CC1       6.81
1  O=C(NO)c1ccsc1Nc1nc(Nc2ccc(N3CCOCC3)cc2)ncc1Cl       7.46

Okay, next one:
Query string: Data request, read-out pIC50, for "COc1ccc(-c2c3c4cc(O)c(OC)cc4oc(=O)c3n3ccc4cc(O)c(OC)cc4c23)cc1O"
Result string: 6.60
